Origin of measurements: paper PMC12059914

# TESTED_SYSTEM: ERAP1 (Homo sapiens, UniProt Q9NZ08)
# Construct: recombinant; Hi5 insect cells, baculovirus; Ni-NTA purified
# Sequence (Q9NZ08 whole entry): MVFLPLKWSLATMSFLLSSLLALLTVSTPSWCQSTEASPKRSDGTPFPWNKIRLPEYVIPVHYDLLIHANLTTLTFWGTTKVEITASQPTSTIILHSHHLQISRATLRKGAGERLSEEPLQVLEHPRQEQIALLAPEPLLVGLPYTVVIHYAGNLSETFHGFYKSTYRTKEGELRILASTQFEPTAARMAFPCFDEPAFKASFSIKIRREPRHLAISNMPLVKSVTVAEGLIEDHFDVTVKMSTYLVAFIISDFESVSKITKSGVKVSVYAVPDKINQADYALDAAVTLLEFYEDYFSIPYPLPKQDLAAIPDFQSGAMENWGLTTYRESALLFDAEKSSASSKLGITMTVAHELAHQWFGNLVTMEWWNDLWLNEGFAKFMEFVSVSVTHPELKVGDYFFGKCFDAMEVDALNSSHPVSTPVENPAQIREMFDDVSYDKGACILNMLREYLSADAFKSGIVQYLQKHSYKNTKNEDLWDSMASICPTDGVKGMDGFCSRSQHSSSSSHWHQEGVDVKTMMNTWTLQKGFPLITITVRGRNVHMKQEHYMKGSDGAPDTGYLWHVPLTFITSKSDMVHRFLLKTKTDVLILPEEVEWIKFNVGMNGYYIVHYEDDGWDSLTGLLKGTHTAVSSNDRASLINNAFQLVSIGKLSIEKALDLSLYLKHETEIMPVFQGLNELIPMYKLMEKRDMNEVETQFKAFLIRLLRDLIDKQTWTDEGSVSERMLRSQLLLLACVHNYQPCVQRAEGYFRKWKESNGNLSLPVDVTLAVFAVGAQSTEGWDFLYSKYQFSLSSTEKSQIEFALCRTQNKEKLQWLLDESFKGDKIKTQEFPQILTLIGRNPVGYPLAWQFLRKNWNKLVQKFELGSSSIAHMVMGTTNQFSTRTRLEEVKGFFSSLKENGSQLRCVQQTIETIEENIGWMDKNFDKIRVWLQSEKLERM
# EXPERIMENT_DESCRIPTION: fluorogenic Leu-AMC hydrolysis, dose-response
PARAMETER: IC50

Cc1ccc(CC(C)(CO)NC(=O)c2cc(-c3c[nH]c4ccccc34)[nH]n2)cc1 (racemic)	> 300 µM

Okay, next one:
Quick one: IC50 of O=C(O)c1cc(CN2CCCCC2CCCc2ccccc2)[nH]n1 (racemic) ?
> 300 µM

###

# TESTED_SYSTEM: ERAP1 (Homo sapiens)
# Construct: recombinant; Hi5 insect cells, baculovirus; Ni-NTA purified
# EXPERIMENT_DESCRIPTION: fluorogenic Leu-AMC hydrolysis, dose-response
pEC50: −log10 of the molar value.
PARAMETER: pEC50

Kindly state the measured pEC50 obtained for NCc1cc(C(=O)NC(Cc2ccccc2Cl)c2ccccc2)n[nH]1 (racemic) with ERAP1 (Homo sapiens).
~3.35
